All values here come from paper PMC9482650.

- SYSTEM TESTED: T1, SIPA1L2, Q9P2F8
- T1 sequence (Q9P2F8 945-1036, limits assumed, looked up): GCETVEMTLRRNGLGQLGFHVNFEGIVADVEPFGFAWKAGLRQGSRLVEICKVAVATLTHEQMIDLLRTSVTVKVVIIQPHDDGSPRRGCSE
- TEST: holdup assay
- Parameters: key: below the threshold = too weak to quantify, mostly under pKd 3.1 to 4
- SETTINGS: plain residues with an end cap or a label only (N-terminal biotin on a linker: ahx)
QUANTITY KIND: pKd

- BINDER: "APSRKLNTEI [TIAM1, Q13009]"
  ASSAY VALUE: "below the threshold"
- BINDER: "TQKFRASTAL [FRMPD1, Q5SYB0]"
  ASSAY VALUE: "below the threshold"
- BINDER: "TEAKLTETNA [MYO18A, Q92614]"
  ASSAY VALUE: "below the threshold"
- BINDER: "TESNLQTSSC [CGN, Q9P2M7]"
  ASSAY VALUE: "below the threshold"
